Reference source: patent US12479848B2

target: ATR/ATRIP enzyme (Homo sapiens, UniProt Q13535); construct: purchased Eurofins 14-953; experiment: ATR enzyme activity experiment (HTRF); assay type: biochemical; conditions: read-out: IC50 (nM), inhibitory effects on ATR kinase activity; HTRF, p53 substrate, 30 minutes at room temperature
Sequence (Q13535 whole entry): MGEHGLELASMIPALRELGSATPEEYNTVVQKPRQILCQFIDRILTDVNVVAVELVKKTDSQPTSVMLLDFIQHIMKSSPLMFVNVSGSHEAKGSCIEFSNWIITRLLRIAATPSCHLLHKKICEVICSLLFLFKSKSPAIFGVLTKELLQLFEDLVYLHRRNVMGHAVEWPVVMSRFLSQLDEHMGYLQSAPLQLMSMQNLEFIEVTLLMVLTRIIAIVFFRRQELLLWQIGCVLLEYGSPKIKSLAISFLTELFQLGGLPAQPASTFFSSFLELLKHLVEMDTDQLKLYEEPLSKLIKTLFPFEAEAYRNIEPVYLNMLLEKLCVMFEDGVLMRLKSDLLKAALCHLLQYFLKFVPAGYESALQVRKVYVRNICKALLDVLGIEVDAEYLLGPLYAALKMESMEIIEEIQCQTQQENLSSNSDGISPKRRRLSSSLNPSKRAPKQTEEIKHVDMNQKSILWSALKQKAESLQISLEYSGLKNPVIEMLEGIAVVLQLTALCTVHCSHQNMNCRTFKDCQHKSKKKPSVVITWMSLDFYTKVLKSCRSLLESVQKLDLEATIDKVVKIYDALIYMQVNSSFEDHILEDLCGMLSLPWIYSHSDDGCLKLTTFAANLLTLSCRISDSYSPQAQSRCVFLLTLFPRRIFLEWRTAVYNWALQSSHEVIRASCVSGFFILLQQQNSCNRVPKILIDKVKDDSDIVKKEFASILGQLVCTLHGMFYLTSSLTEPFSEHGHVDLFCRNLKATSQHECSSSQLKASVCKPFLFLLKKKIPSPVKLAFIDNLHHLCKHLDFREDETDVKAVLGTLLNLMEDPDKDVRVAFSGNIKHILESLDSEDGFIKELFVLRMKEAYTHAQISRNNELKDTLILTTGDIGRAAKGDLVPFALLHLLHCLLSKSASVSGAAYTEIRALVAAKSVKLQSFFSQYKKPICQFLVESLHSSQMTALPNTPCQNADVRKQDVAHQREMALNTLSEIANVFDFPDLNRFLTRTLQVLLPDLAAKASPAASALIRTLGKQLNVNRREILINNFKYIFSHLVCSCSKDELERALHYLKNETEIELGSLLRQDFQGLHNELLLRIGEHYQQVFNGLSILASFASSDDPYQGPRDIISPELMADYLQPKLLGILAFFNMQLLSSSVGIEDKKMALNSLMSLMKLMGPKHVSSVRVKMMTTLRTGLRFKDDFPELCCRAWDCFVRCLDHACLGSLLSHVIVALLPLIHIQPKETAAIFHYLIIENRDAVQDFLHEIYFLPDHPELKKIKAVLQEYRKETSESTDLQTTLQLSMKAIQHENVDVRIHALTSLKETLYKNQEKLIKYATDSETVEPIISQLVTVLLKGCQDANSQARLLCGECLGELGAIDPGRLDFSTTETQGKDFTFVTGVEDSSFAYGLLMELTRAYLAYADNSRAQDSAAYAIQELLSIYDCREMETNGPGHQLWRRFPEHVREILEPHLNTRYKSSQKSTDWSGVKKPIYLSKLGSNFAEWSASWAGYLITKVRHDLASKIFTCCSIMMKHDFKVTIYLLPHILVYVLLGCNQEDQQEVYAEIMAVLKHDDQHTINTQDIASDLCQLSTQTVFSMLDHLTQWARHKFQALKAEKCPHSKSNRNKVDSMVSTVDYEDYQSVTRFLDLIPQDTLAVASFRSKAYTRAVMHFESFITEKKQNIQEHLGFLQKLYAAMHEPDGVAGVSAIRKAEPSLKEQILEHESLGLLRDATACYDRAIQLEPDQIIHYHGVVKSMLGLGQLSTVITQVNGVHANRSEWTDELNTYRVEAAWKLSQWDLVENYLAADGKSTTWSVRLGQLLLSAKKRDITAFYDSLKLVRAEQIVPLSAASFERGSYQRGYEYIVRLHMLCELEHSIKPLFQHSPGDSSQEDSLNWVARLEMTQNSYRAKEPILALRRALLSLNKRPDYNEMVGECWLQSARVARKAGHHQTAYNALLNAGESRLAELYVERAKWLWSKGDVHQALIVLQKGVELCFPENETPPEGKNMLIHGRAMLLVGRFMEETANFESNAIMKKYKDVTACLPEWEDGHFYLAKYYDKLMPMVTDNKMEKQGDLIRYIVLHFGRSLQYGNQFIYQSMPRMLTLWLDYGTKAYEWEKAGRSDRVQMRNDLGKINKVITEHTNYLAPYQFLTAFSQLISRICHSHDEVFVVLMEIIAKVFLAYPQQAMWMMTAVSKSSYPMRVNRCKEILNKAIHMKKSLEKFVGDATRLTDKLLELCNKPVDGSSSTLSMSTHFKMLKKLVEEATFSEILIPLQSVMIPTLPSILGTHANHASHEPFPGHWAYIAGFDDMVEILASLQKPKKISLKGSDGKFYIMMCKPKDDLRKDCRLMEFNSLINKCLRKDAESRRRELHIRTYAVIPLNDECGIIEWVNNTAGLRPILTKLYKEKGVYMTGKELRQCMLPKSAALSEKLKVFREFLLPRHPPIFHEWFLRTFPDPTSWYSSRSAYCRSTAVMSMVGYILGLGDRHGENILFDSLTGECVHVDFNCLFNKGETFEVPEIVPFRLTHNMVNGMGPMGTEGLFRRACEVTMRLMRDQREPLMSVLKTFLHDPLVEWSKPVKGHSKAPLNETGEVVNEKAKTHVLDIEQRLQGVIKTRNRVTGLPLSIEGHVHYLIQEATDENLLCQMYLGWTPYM
Sequence (Q8WXE1 whole entry partner): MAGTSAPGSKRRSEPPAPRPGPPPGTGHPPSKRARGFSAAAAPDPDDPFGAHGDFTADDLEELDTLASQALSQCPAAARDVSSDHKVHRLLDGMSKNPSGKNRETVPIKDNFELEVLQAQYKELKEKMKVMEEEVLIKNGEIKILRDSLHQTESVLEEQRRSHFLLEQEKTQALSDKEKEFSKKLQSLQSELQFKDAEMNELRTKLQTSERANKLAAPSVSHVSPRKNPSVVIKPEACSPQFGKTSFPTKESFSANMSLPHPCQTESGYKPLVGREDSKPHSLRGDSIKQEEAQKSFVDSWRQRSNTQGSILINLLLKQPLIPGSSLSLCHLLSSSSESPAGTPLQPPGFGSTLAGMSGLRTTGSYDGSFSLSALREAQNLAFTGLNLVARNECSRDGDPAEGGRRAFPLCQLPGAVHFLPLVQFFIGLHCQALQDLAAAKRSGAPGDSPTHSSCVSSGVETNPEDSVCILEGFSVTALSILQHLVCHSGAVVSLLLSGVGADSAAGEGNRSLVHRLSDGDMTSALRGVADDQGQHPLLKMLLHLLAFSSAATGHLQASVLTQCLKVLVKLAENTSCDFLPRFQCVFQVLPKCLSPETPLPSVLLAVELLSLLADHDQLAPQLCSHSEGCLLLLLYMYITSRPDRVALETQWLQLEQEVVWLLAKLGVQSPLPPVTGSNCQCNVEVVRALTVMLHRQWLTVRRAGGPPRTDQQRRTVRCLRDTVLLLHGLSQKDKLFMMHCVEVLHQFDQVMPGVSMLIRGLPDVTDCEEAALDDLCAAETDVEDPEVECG
ENDPOINT LABEL: IC50 (nM)

> print(dat)
                              line.notation  number
1  C[C@@H]1COCCN1c1cc(-c2ccnn2C)c2cnc(-c3ccn[nH]3)n2n1       4
2  C[C@@H]1COCCN1c1cc(-c2ccnn2C)c2ncc(-c3ccn[nH]3)n2n1     938

###

Recorded pIC50, one value per entry.
Target: ATR/ATRIP enzyme (Homo sapiens, UniProt Q13535)
Construct: purchased Eurofins 14-953
Experiment: ATR enzyme activity experiment (HTRF)
Assay type: biochemical
Settings: HTRF, p53 substrate, 30 minutes at room temperature
Protocol: The test compound was diluted to a 4× final concentration with reaction buffer (25 mM HEPES (pH8.0), 10 mM MnCl2, 1% glycerol, 0.01% Brij-35, 5 mM DTT and 0.1% BSA). […] The mixture was centrifuged at 1000 rpm for 1 minute, and reacted at room temperature protected from light for 30 minutes. […] Data were analyzed using GraphPad Prism6.0, and fitted using the curve equation: Y=Bottom+(Top−Bottom)/(1+10^((Log IC50−X)*HillSlope)) and IC50 values were calculated.
pIC50: −log10 of the molar value.
ENDPOINT LABEL: pIC50

> print(dat)
                                    molecule                              assay.target  endpoint.label  sign.qualifier  number
 1  C[C@@H]1COCCN1c1cc(-c2cccc(C#N)c2)c2cnc(-c3ccn[nH]3)n2n1  ATR/ATRIP enzyme (Homo sapiens, UniProt Q13535)           pIC50               =    8.05
 2  Cc1cc(S(C)(=O)=O)ccc1-c1cc(N2CCOC[C@H]2C)nn2c(-c3ccn[nH]3)ncc12  ATR/ATRIP enzyme (Homo sapiens, UniProt Q13535)           pIC50               =    8.22
 3  Cc1ncccc1-c1cc(N2CCOC[C@H]2C)nn2c(-c3ccn[nH]3)ncc12  ATR/ATRIP enzyme (Homo sapiens, UniProt Q13535)           pIC50               =    8.70
 4  C[C@@H]1COCCN1c1cc(-c2ccnn2C)c2cnc(-c3cc[nH]c3)n2n1  ATR/ATRIP enzyme (Homo sapiens, UniProt Q13535)           pIC50               =    8.17
 5  CC(C)n1nccc1-c1cc(N2CCOC[C@H]2C)nn2c(-c3ccn[nH]3)ncc12  ATR/ATRIP enzyme (Homo sapiens, UniProt Q13535)           pIC50               =    8.22
 6  C[C@@H]1COCCN1c1cc(-c2cccnc2C(F)(F)F)c2cnc(-c3ccn[nH]3)n2n1  ATR/ATRIP enzyme (Homo sapiens, UniProt Q13535)           pIC50               =    9.00
 7  C[C@@H]1COCCN1c1cc(-c2ccnn2C)c2cnc(-c3ccc[nH]3)n2n1  ATR/ATRIP enzyme (Homo sapiens, UniProt Q13535)           pIC50               =    8.69
 8  C[C@@H]1COCCN1c1cc(-c2ccnn2C)c2cnc(-c3c[nH]cn3)n2n1  ATR/ATRIP enzyme (Homo sapiens, UniProt Q13535)           pIC50               <    6.00
 9  Cc1nc([S+](C)[O-])ccc1-c1cc(N2CCOC[C@H]2C)nn2c(-c3ccn[nH]3)ncc12 (some centres unmarked)  ATR/ATRIP enzyme (Homo sapiens, UniProt Q13535)           pIC50               =    7.80
10  C[C@@H]1COCCN1c1cc(N2CCOCC2)c2cnc(-c3ccn[nH]3)n2n1  ATR/ATRIP enzyme (Homo sapiens, UniProt Q13535)           pIC50               =    7.92
11  Cc1ncncc1-c1cc(N2CCOC[C@H]2C)nn2c(-c3ccn[nH]3)ncc12  ATR/ATRIP enzyme (Homo sapiens, UniProt Q13535)           pIC50               =    8.30
12  Cc1ccccc1-c1cc(N2CCOC[C@H]2C)nn2c(-c3ccn[nH]3)ncc12  ATR/ATRIP enzyme (Homo sapiens, UniProt Q13535)           pIC50               =    8.70
13  C[C@@H]1COCCN1c1cc(-c2cncn2C)c2ncc(-c3ccn[nH]3)n2n1  ATR/ATRIP enzyme (Homo sapiens, UniProt Q13535)           pIC50               =    7.23
14  CCn1nccc1-c1cc(N2CCOC[C@H]2C)nn2c(-c3ccn[nH]3)ncc12  ATR/ATRIP enzyme (Homo sapiens, UniProt Q13535)           pIC50               =    8.15
15  Cc1ccc(-c2cc(N3CCOC[C@H]3C)nn3c(-c4cc(C)n[nH]4)ncc23)cn1  ATR/ATRIP enzyme (Homo sapiens, UniProt Q13535)           pIC50               =    8.52
16  C[C@@H]1COCCN1c1cc(-c2ccccc2F)c2cnc(-c3ccn[nH]3)n2n1  ATR/ATRIP enzyme (Homo sapiens, UniProt Q13535)           pIC50               =    8.15
17  C[C@@H]1COCCN1c1cc(-c2ccncc2F)c2cnc(-c3ccn[nH]3)n2n1  ATR/ATRIP enzyme (Homo sapiens, UniProt Q13535)           pIC50               =    7.92

###

system: human lung cancer cell NCI-H460; assay: MTT proliferation assay, NCI-H460; type: cell-based; settings: Homo sapiens, NCI-H460, 96 h, 4 days, read-out: IC50 (nM), inhibition of proliferation of NCI-H460
ENDPOINT LABEL: log10 of IC50 (log10 of the value in nM)

> print(dat)
                                   compound                     assay.target  endpoint.label  number
1  Cc1cnccc1-c1cc(N2CCOC[C@H]2C)nn2c(-c3ccn[nH]3)ncc12 [Example 51]  human lung cancer cell NCI-H460   log10 of IC50    1.88
2  Cc1ncncc1-c1cc(N2CCOC[C@H]2C)nn2c(-c3ccn[nH]3)ncc12 [Example 45]  human lung cancer cell NCI-H460   log10 of IC50    1.90
3  CC(C)n1nccc1-c1cc(N2CCOC[C@H]2C)nn2c(-c3ccn[nH]3)cnc12 [Example 4]  human lung cancer cell NCI-H460   log10 of IC50    2.73
4  C[C@@H]1COC[C@@H](C)N1c1cc(-c2ccnn2C)c2cnc(-c3ccn[nH]3)n2n1 [Example 34]  human lung cancer cell NCI-H460   log10 of IC50    3.18
5  C[C@@H]1COCCN1c1cc(-c2ccc(S(C)(=O)=O)cc2)c2cnc(-c3ccn[nH]3)n2n1 [Example 35]  human lung cancer cell NCI-H460   log10 of IC50    2.23
6  Cc1ccc(-c2cc(N3CCOC[C@H]3C)nn3c(-c4cc(C)n[nH]4)ncc23)cn1 [Example 39]  human lung cancer cell NCI-H460   log10 of IC50    1.42
7  C[C@@H]1COCCN1c1cc(-c2ccnn2C)c2cnc(-c3cc[nH]c3)n2n1 [Example 21]  human lung cancer cell NCI-H460   log10 of IC50    2.39
8  C[C@@H]1COCCN1c1cc(-c2cccc(C#N)c2)c2cnc(-c3ccn[nH]3)n2n1 [Example 52]  human lung cancer cell NCI-H460   log10 of IC50    1.42

###

molecular target: ATR/ATRIP enzyme (Homo sapiens, UniProt Q13535); construct: purchased Eurofins 14-953; test: ATR enzyme activity experiment (HTRF); assay type: biochemical; conditions: HTRF, p53 substrate, 30 minutes at room temperature
Catalogue of IC50 readings, one per entry.
ENDPOINT LABEL: IC50 (µM)

> print(dat)
                                   compound  sign.qualifier  number
1  Cc1ccc(-c2cc(N3CCOC[C@H]3C)nn3c(-c4ccn[nH]4)ncc23)cn1 [Example 24]               =   0.002
2  Cc1nc(S(C)(=O)=O)ccc1-c1cc(N2CCOC[C@H]2C)nn2c(-c3ccn[nH]3)ncc12 [Example 48]               =   0.011
3  Cc1cnn(C)c1-c1cc(N2CCOC[C@H]2C)nn2c(-c3ccn[nH]3)ncc12 [Example 41]               =   0.002
4  C[C@@H]1COCCN1c1cc(-c2ccnn2C)c2ncc(-c3ccn[nH]3)n2c1 [Example 1]               >      10
5  C[C@@H]1COCCN1c1cc(C2CC2)c2cnc(-c3ccn[nH]3)n2n1 [Example 32]               =   0.015
